test: soluble fraction after stress (log2 fold change); higher = more stays soluble; pooled small domains, quantitative proteomics; conditions: stress: pH 4
Known soluble fraction (log2) of a selection of sequences

{"seqText": "HMESLNDRIKLVFKDSGLTQMDISKRLNIAQSSVSGIISGKANPSKRTLADIADRFDVNLEWLRDGTGPMK", "soluble fraction (log2)": 0.199}
{"seqText": "HMKKVTMQDIANILNISRVTVWKVLNNQPGVSKQLRDQILLTAKETGYLKPGQEAEAYLEENNIYFEG", "soluble fraction (log2)": -0.344}
{"seqText": "HMVSATKAFVNGGNIVVSSPKATRVAVYNVAGQKVAEQAFAGKATIKASDFAKGIYVLKFNDNTVLKLT", "soluble fraction (log2)": -0.0226}
